- PROCEDURE_DETAILS: Toxicity liver stage against HepG2, at 10uM
- Type: cell-based
- Set-up: test concentration 10 uM, cell line HepG2-A16-CD81EGFP
- CONDITION_LABEL: human, HepG2-A16-CD81EGFP cells; read-out: INHIBITION
The reader will find reported cytotoxicity at 10 µM values listed item by item below.

* O=C(Cc1ccc(F)cc1)NCCNCc1cccc(O)c1 | -10.4%
* CC(C)(C)c1noc(OCC(=O)NC2CCCC2)n1 | 2.68%
* CS(=O)(=O)N1CCCC(c2cccc(-c3ccccc3F)n2)C1 (stereo unspecified) | -3.81%
* CCC(COC)NC(=O)N1CCC(n2ccc(C(F)(F)F)n2)CC1 (stereo unspecified) | -12%
* CCCn1ncc(CN2C[C@@H]3CCCN3C[C@@H]2CCSC)c1C | 4.06%

Now consider a different compound.
Supply recorded cytotoxicity at 10 µM for "NC(=O)CN1CCN(CC2CC2)c2ccccc21" here.
3.92%

---

- PROCEDURE_DETAILS: Toxicity liver stage against HepG2, at 10uM
- Type: cell-based
- Set-up: test concentration 10 uM, cell line HepG2-A16-CD81EGFP
- CONDITION_LABEL: human, HepG2-A16-CD81EGFP cells; read-out: INHIBITION
EXPERIMENTAL_READOUT: cytotoxicity at 10 µM (%)
All answers are understood in %, so give the number only.

Below, each entry is followed by its recorded cytotoxicity at 10 µM result.
* OC[C@H]1CCCN1c1nccc(-c2cncnc2C2CCCCC2)n1 | 0.0815
* Cc1cc(C)nc(N2CCC(C(=O)Nc3n[nH]c(C)n3)CC2)n1 | 8.78
* CSc1ccc(S(=O)(=O)N2CCCCC2CCNC(C)=O)cc1 (stereo not drawn) | -9.61

Supply recorded cytotoxicity at 10 µM for "O=C(O)c1cc(S(=O)(=O)N2CCOc3ccccc32)ccc1Br" here.
-3.39

Supply recorded cytotoxicity at 10 µM for "CNC(=O)CN(C)c1nc(-c2ccc(C(N)=O)cc2)nc2c1CCNC2" here.
3.62

---

The reader will find reported cytotoxicity at 10 µM values listed item by item below.
- PROCEDURE_DETAILS: Toxicity liver stage against HepG2, at 10uM
- Format: cell-based
- Set-up: test concentration 10 uM, cell line HepG2-A16-CD81EGFP
- CONDITION_LABEL: human, HepG2-A16-CD81EGFP cells; read-out: INHIBITION
All answers are understood in %, so give the number only.

Below, each entry is followed by its recorded cytotoxicity at 10 µM result.
• CCC(NS(=O)(=O)c1ccc(C(=O)NC2CC2)cc1)c1ccnn1C (centres undefined) = 9.65
• CC(C)Oc1cccc(CC(=O)NC2CCN(CC(N)=O)CC2)c1 = 3.05
• Cc1nc(C)n(CC2CCCN(Cc3cn4c(C)cccc4n3)C2)n1 (centres undefined) = -6.01
• Cn1nnc2cc(C(=O)N3CCC(Nc4cccnn4)CC3)ccc21 = -2.85

Supply recorded cytotoxicity at 10 µM for "COCCO[C@@H]1CCN(C(=O)c2occc2C)[C@H]1Cc1cnn(C)c1" here.
5.1

Supply recorded cytotoxicity at 10 µM for "Cn1cc(CNCCNc2ncc(Cl)cc2Cl)cn1" here.
-6.42
